Test system: HeLa
Experiment: Cytotoxicity against human HeLa cells
Format: functional
Settings: Homo sapiens, HeLa
endpoint: CC50

Recorded CC50, per entry:
| compound | CC50 |
| --- | --- |
| CC(CCCCCCCCCCCCCCO[C@@H]1O[C@H](CO)[C@@H](O)[C@H](O)[C@@H]1O)C(=O)C1=C(O)N(C)C(C)C1=O (some centres undefined) | > 90 µM |
| CC(=O)OC[C@H]1O[C@@H](OCCCCCCCCCCCCCCC(C)C(=O)C2=C(O)N(C)C(C)C2=O)[C@@H](O)[C@@H](O)[C@@H]1O (some centres undefined) [EPICOCCAMIDE C] | 29 µM |
| CC(=O)O[C@@H]1[C@H](O)[C@H](OCCCCCCCCCCCCCCC(C)C(=O)C2=C(O)N(C)C(C)C2=O)O[C@H](CO)[C@H]1O (some centres undefined) | 44.2 µM |

Turning now to a further compound:
Reported CC50 of CC(CCCCCCCCCCCCCCCCO[C@@H]1O[C@H](CO)[C@@H](O)[C@H](O)[C@@H]1O)C(=O)C1=C(O)N(C)C(C)C1=O (some centres undefined) [EPICOCCAMIDE D] : 17 µM

* * *

Experiment: Antiproliferative activity against mouse L929 cells
Format: cell-based
endpoint: GI50 (µM)
Write the answer as a number in µM, unit excluded.

Recorded GI50, per entry:
| molecule | unit abbreviation | measured result |
| --- | --- | --- |
| CC(=O)O[C@@H]1[C@H](O)[C@H](OCCCCCCCCCCCCCCC(C)C(=O)C2=C(O)N(C)C(C)C2=O)O[C@H](CO)[C@H]1O (some centres undefined) | µM | 71.1 |
| CC(=O)OC[C@H]1O[C@@H](OCCCCCCCCCCCCCCC(C)C(=O)C2=C(O)N(C)C(C)C2=O)[C@@H](O)[C@@H](O)[C@@H]1O (some centres undefined) [EPICOCCAMIDE C] | µM | 57.2 |

Reported GI50 of CC(CCCCCCCCCCCCCCCCO[C@@H]1O[C@H](CO)[C@@H](O)[C@H](O)[C@@H]1O)C(=O)C1=C(O)N(C)C(C)C1=O (some centres undefined) [EPICOCCAMIDE D] : 50.5
